B1: TPR t1 (parent)
chain: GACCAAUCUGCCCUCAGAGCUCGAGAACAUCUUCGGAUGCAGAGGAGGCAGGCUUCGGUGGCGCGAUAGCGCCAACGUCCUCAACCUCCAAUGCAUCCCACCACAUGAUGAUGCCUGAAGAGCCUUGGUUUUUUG

Variants of: B1
Assay: polymerase ribozyme fitness, log enrichment relative to wild type (log ratio); higher = more active; in vitro selection for triplet polymerase activity
Quick list: polymerase ribozyme fitness (log ratio) per entry.
measured_quantity: polymerase ribozyme fitness (log ratio)

chain | recorded_measurement
GACCAAUCUGCCCUCAGAGCUCGAGAACAUCUUCGGAUGCAUAGGAGGCAGGCUUCGGUGGCGCGAUAGCGUCAACGUCCUCAACCUCCAAUGCAUCCCACCACAUGAUGAUGCCUGAAGAGCCUUGGUUUUUUG [G42U C72U] | -1.64
GACCAAUCUGCCCUCAGAGCUCGAGAACAUCUUCGGAUGUAGAAGAGGCAGGCUUCGGUGGCGCGAUAGCGCCAACGUCCUCAACCUCCAAUGCAUCCCACCACAUGAUGAUGCCUGAAGAGCCAUGGUUUUUUG [C40U G44A U125A] | -1.32
GACCAAACUGCCCUCAGAGCUCGAGAACAUCUUCGGAUGCAGAGGGGGCAGGCUUCGGUGGCGCGAUAGUGCCAACGUCCUCAACCUCCAAUGCAUCCCACCACAUGAUGCUACCUGAAGAGCCUUGGUUUUUUG [U7A A46G C70U A111C G113A] | -3.8
GACCAAUCUGCCCUCAGAGCUCGAGAACAUCUUCGUAUGCAGAGGAGGCAGUCUUCGGUGGCGCGAUAGCGCCAACGUCCUCAACCUCCAAUGCAUCCCACCACAUGAUGAUGCCUGAAGAGCCUUGGUUUUUUG [G36U G52U] | -2.2
GACCAAUCUGCCCUCAGAGCUCGAGAACAUCUUCGGAUGCAGAUGAGGCAGGCUUCGGUGGCGCGAUAGCGGCAACGUCCUCAACCUCCAAUGCAUCCCACCACAUGAUGAUGCCUGAACAGCCUUGGUUUUUUG [G44U C72G G120C] | -0.514
GACCAAUCUGCCCUCAGAGCUCGAGAACAUCUUCGGAUGCAGUGGAGGCAGGCUUCGGUGGAGCGAUAGCGCCAACGUCCUCAACCUCCAAUGCAUCCCACCACAUGAUGAUGCCUGAAGAGCCUUGGUUUUUUG [A43U C62A] | -2.39
GACCAAUCUGCCCUCAGAGCUCGAGAACAUCUUCGGAUGCAGAGGAGGCAGGCUUCGGUGGCGCGAUAGCGCCAACGCCCUCAAGCUCCAAUGCAUCCCACCACAUGAUGAUGCCUGAAGAGCCUUGGCUUUUUG [U78C C85G U129C] | -2.13
GACCAAUCUGCCCUCAGAGCUCGAGAACAUCUUCGGAUGCAGAGGAGGCAGGCUUCGGUGGCGCGAUAGCGCCAACGUCCUCAACCUCCAAUGCAUCCCACCACAUGAUGAUGCCUCAAGUGCCUUGGUUUUUUG [G117C A121U] | -3
GACCAAUCUGCCCUCAGAGCUCGAGAACAUGUUCGGAUGCAUAGGAGGCAGGCUUCGGUGGCGCGAUAGCGGCAACGUCCUCAACCUCCAAUGCAUCUCACCACAUCAUGAUGCUUGAAGAGCCUUGGUUUUUUG [C31G G42U C72G C98U G107C C115U] | -6.04
GACCAAUCUGCCCUCAGAACUCGAGAACAUCUUCGGAUGCAGAGGAGGCAGGCUUCGGUGGCGCGAUAGCGCCAACGUCCUCAACCUCCAAUUCAUCCCACCACAUGAUGAUGCCUGAAGAGCCUUGGUUUUUUG [G19A G93U] | -4.24
GACCAAUAUGCCCUCAGAGCUCGAGAACAUCUUCGGAUGCAGAGGAGGCAGGCUUCGGUGGCGCGAUAGCGCCAACGUCCUCAACCUACAAUGCAUCCCACCACAUGAUGAUGCCUGAAGAGCCUUGGUUUUUUG [C8A C88A] | 0.0973
